Reference source: PubChem BioAssay

- experiment-description: 384-well plate pilot, post-Golgi transport modulator project, inhibition of yeast transport mutant growth (AID 636)
- condition-description: absorbance 615 nm, about 18 h, stronger effect = higher value
Attribute: inhibition
Note: unit % is implicit; provide only the numeric part.

Take a look at these entries with their results.
| compound | inhibition [%] |
| --- | --- |
| O=C(O)CCCc1ccccc1 | -0.91 |
| CCn1c(CNc2ccc(OC)cc2)nnc1SCC(=O)c1ccc(OC)cc1 | -3.64 |
| Cc1ccc2cc(C(c3nnnn3C3CCCC3)N3CCN(c4ccc(F)cc4)CC3)c(=O)[nH]c2c1 (stereo not drawn) | -5.6 |
| Cc1c(C(=O)N2CCN(c3ccccc3)CC2)sc2ncnc(N3CCN(c4ccccc4)CC3)c12 | 0.13 |
| COC(=O)c1cc(Br)c(=O)n(CCc2ccc(F)cc2)c1 | -5.27 |
| Cc1ccc(CNC(=O)c2coc(=O)c3ccccc23)o1 | -0.53 |
| COc1cccc(N2C(=O)N(c3ccccc3Cl)C3CS(=O)(=O)CC32)c1 (stereo not drawn) | -6.71 |
| CC(C)Oc1ccc(C2C(C(=O)c3ccco3)=C(O)C(=O)N2CCCN(C)C)cc1 (stereo not drawn) | -1.18 |

Query: Fill in the blank: the reported inhibition of `c1ccc(OCCOc2ncnc3sccc23)cc1` is ____.
Reply: -0.26

Query: Now consider `C=CCn1c(SCC(=O)Nc2cccc(OC)c2)nnc1-c1cccnc1` and answer again.
Reply: -6.4

Query: Queued: `C=C(C)Cn1c(CCCNC(=O)C(C)(C)C)nc2ccccc21`
Reply: -3.47

Query: Consider next the compound `O=C(O)CCn1[nH]c(=O)ccc1=O` in the same way.
Reply: -2.05

Query: Now this one: CC(CC(=O)NCc1ccccc1)C1CCCO1 (stereo not drawn)
Reply: -2.21

Query: Next up: `CC(=O)Nc1ccc(-c2cc3ccccc3o2)cc1`
Reply: -6.44

Query: Field entry: Cc1cc2c(c(=O)n1C)C(Cc1ccccc1)C(C#N)=C(N)O2 (stereo not drawn)
Reply: -5.54

Query: Repeat for the following compound: `CCN(C(=O)CN1CCN(c2ccccc2OC)CC1)c1c(N)n(Cc2ccccc2)c(=O)[nH]c1=O`
Reply: -8

Query: Quick one: `O=C(c1cccs1)c1cn(CC(=O)N2CCc3ccccc3C2)c2ccccc12`
Reply: -6.13

Query: Same again, this time with `COC(=O)Cc1c(C)nc2nc(-c3ccccc3)[nH]n2c1=O`
Reply: 0.53

Query: Follow-up entry: CCCOc1ccc(N2C(=O)CC(SCCN)C2=O)cc1 (stereo not drawn)
Reply: -5.47

Query: Record: `O=C(Nc1nnc(C2CCCC2)s1)C1CCN(S(=O)(=O)c2ccc(Cl)cc2)CC1`
Reply: -5.87

Query: Do the same for CCCCOC(=O)C1=C(C)Nc2ncnn2C1c1cccc(OC)c1OC (stereo not drawn) please
Reply: -5.13

Query: Can you check `O=C(Nc1nccs1)c1cccc(NC(=O)C2CC2)c1` next?
Reply: -6.13

Query: Moving on to the next compound: `COc1c2occc2c(OC)c2c(=O)cc(C)oc12`
Reply: 0.13

====

- experiment-description: SK-BR-3 cell growth inhibitors, pilot screen, 24 h, human (AID 572);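 also: compound exposure lasted between 18 and 24 h rather than exactly 24 h; 100% = carrier-treated control wells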
- condition-description: SK-BR-3 viability, CellTiter-Glo luminescence, at 10 µM, stronger effect = lower value
Checkbox rule: viability lower than 80% = yes; viability not lower than 80% = no.

| compound | label-value |
| --- | --- |
| Cc1ccc(-c2nn(-c3ccccc3)cc2/C=C(\C#N)c2cccc(C#N)c2)o1 | yes |

Query: In plain terms, does O=C(Cn1c(C(=O)NCC2CCCO2)cc2sccc21)c1ccccc1 (stereo unspecified) come in under 80% for viability?
Reply: no

Query: Similarly, `CCOC(=O)c1sc(NC(=O)c2c(C)nn(Cc3ccccc3)c2C)cc1C` ?
Reply: no

Query: And for `CCN(CC)C(=O)c1ccc(O)c(OC)c1` ?
Reply: no

Query: Field entry: `CCOC(=O)c1cc(-c2nnc(-c3ccc(Oc4ccccc4)cc3)o2)c(C)nc1C`
Reply: no
